Taken from paper PMC2408616.

- targetDesc: Kap104p (UniProt P38217)
- Sequence (P38217 whole entry): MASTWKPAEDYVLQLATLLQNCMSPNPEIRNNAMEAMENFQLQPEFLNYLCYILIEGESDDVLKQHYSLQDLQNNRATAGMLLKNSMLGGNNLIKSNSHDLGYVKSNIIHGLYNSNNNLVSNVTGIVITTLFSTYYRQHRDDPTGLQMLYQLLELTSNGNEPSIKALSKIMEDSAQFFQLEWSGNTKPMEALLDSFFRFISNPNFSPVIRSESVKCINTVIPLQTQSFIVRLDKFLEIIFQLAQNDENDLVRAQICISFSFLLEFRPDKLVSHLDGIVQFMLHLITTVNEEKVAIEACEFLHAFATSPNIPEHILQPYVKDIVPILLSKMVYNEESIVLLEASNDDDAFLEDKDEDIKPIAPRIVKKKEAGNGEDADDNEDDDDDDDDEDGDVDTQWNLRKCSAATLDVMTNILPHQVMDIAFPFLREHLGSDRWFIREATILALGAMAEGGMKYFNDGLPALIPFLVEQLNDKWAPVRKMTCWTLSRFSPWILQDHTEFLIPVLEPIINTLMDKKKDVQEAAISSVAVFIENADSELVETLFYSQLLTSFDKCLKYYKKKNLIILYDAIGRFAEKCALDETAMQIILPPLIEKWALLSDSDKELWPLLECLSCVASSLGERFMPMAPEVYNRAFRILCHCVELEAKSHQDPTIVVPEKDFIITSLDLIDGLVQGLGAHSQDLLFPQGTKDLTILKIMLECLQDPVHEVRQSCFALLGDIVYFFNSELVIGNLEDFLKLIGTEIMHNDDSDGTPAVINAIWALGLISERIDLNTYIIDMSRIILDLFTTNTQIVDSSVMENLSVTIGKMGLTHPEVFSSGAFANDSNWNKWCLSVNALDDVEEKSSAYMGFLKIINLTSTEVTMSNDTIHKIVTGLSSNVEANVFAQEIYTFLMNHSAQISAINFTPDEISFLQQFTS
- protocolText: ITC
- assayConditions: parent: 37 ± 20
pKd: −log10 of the molar value.
assayReadout: pKd

MBP–Nab2p NLS 210GGG212/AAA (protein) DNSQRFTQRAAAAVGKNRRGGRGGNRGGRNNNSTRFNPLAKALGMAGESNM; 7.72
